For each entry below, report its interaction score value.
tested-on: T1, 4H891-AA
T1 chain: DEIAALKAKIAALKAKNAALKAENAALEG
test-name: two-hybrid library CCmax;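 note: natural log of median RNA to DNA barcode read ratio; higher means stronger binding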
conditions: mean of both orientations
Form: value (number only, do not type unit).

Prompt: Field request: interaction score | item: DEIAALKAKIAALEAENAALKAKIAALEG [4H797-AA]
Completion: -1.35

Prompt: Proceed to DEIAALKAKIAALKAENAALEAEIAALKG [4H850-AA]
Completion: -0.0612

Prompt: Likewise for DKNAALEAEIAALKAENAALKAKIAALEG [4H3165-AA] ?
Completion: -1.63

Prompt: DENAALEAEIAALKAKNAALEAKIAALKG [4H1142-AA] , same question.
Completion: -1.23

Prompt: Also DKNAALEAKIAALKAENAALEAEIAALKG [4H3410-AA] ?
Completion: -1.42

Prompt: Also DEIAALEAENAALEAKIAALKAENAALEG [4H171-AA] ?
Completion: -0.295

Prompt: Again, but for DENAALKAKIAALKAENAALEAKIAALEG [4H1877-AA]
Completion: -1.36

Prompt: Moving on to DEIAALKAEIAALEAENAALEAKNAALKG [4H536-AA]
Completion: 1.78

Prompt: Ok, now DKIAALEAENAALKAKIAALEAEIAALKG [4H2274-AA]
Completion: -1.73
